B1: tRNA (parent)
chain: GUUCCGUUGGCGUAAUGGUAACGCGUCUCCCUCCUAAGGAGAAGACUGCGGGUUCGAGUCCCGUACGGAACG

- Variants of: B1
- TEST DESCRIPTION: yeast fitness relative to wild type (ratio to wild type); higher = fitter; tRNA-Arg(CCU), competitive growth, 37 C, YPD
This sample holds only a part of the variants without activity.
Kindly state yeast fitness for each of the entries shown.

Value lookup for yeast fitness; key = A15C C31A C34A G67C
≤ 0.5

Also U13C A42U U54C A65C , if possible.
≤ 0.5

Also U19C A37G G58C C61U U64C , if possible.
≤ 0.5

Also A40U U53A , if possible.
0.774

Also C11A A14G A15G C22A G23A C33A G38C A70U , if possible.
≤ 0.5

Also C5A C11G G51A C61U , if possible.
≤ 0.5

Also U3A C24U C31G G44C A69U , if possible.
≤ 0.5

Also U3A G6A A14U C33G , if possible.
≤ 0.5

Also A37C C60G G67A , if possible.
≤ 0.5

Also G9C U32G C33G G50A U53G , if possible.
≤ 0.5

Also U26A C27A C31U , if possible.
≤ 0.5

Also C5A C11A C24U U26C C29U C31G A42G , if possible.
≤ 0.5

Also C5G G51C C55G A57U C66U , if possible.
≤ 0.5

Also A21U C31U A57U , if possible.
≤ 0.5

Also U2C C46U U64A , if possible.
0.688

Also U8C G9A G12A , if possible.
0.529

Also A21U U54A C61U , if possible.
≤ 0.5

Also U2G C31G A57U A65G , if possible.
≤ 0.5

Also A20C A45C , if possible.
0.843

Also A15G G48A C62U , if possible.
1.03

Also U13A C29G C30G C49A G56C C61U , if possible.
0.635

Also C4G C11G G50A , if possible.
≤ 0.5

Also C27A G39A A57G , if possible.
≤ 0.5

Also G6A U26C C62U , if possible.
≤ 0.5

Also G25C A37U , if possible.
0.56

Also A40U A45U , if possible.
0.941

Also A45C A70U , if possible.
0.862
